Test system: Escherichia coli TOP10
Test: shrunken log2 fold change of peptide-encoding DNA abundance (4.5 h post-induction vs induction); higher = less antimicrobial activity (less host growth inhibition)
Settings: time post-induction: 4.5 h; library: site-saturation at positions 5, 18, 19, 20

{"BIOPOLYMER_SEQUENCE": "RRIRLRPPRLPRPRPRPIANPRP", "TEST_TARGET": "Escherichia coli TOP10", "shrunken log2 fold change": -0.00904}
{"BIOPOLYMER_SEQUENCE": "RRIRPRPPRLPRPRPRPYQRPRP", "TEST_TARGET": "Escherichia coli TOP10", "shrunken log2 fold change": 0.0369}
{"BIOPOLYMER_SEQUENCE": "RRIRQRPPRLPRPRPRPKHEPRP", "TEST_TARGET": "Escherichia coli TOP10", "shrunken log2 fold change": 0.164}
{"BIOPOLYMER_SEQUENCE": "RRIRGRPPRLPRPRPRPFPFPRP", "TEST_TARGET": "Escherichia coli TOP10", "shrunken log2 fold change": -0.0622}

###

The entries below are paired with their reported shrunken log2 fold change.
System: Escherichia coli TOP10
Experiment: shrunken log2 fold change of peptide-encoding DNA abundance (4.5 h post-induction vs induction); higher = less antimicrobial activity (less host growth inhibition)
Settings: time post-induction: 4.5 h; library: site-saturation at positions 5, 18, 19, 20

{"BIOPOLYMER_SEQUENCE": "RRIRDRPPRLPRPRPRPRKSPRP", "shrunken log2 fold change": -0.0168}
{"BIOPOLYMER_SEQUENCE": "RRIRQRPPRLPRPRPRPRNWPRP", "shrunken log2 fold change": -0.0692}
{"BIOPOLYMER_SEQUENCE": "RRIRNRPPRLPRPRPRPCFSPRP", "shrunken log2 fold change": -0.378}
{"BIOPOLYMER_SEQUENCE": "RRIRRRPPRLPRPRPRPQHDPRP", "shrunken log2 fold change": 0.478}
{"BIOPOLYMER_SEQUENCE": "RRIRVRPPRLPRPRPRPIMEPRP", "shrunken log2 fold change": 0.0384}
{"BIOPOLYMER_SEQUENCE": "RRIRMRPPRLPRPRPRPDHIPRP", "shrunken log2 fold change": -0.000611}
{"BIOPOLYMER_SEQUENCE": "RRIRERPPRLPRPRPRPIMRPRP", "shrunken log2 fold change": -0.102}
{"BIOPOLYMER_SEQUENCE": "RRIRSRPPRLPRPRPRPASYPRP", "shrunken log2 fold change": 0.102}
{"BIOPOLYMER_SEQUENCE": "RRIRHRPPRLPRPRPRPEKMPRP", "shrunken log2 fold change": -0.0669}

###

Test system: Escherichia coli TOP10
Assay: shrunken log2 fold change of peptide-encoding DNA abundance (4.5 h post-induction vs induction); higher = less antimicrobial activity (less host growth inhibition)
Settings: time post-induction: 4.5 h; library: site-saturation at positions 5, 18, 19, 20
Would you mind labelling by shrunken log2 fold change? At or over -0.05 is label 1, under is label 0.

{"BIOPOLYMER_SEQUENCE": "RRIRERPPRLPRPRPRPPIHPRP", "CLASS_ASSIGNMENT": "label 0"}
{"BIOPOLYMER_SEQUENCE": "RRIRLRPPRLPRPRPRPDPAPRP", "CLASS_ASSIGNMENT": "label 1"}
{"BIOPOLYMER_SEQUENCE": "RRIRLRPPRLPRPRPRPIPIPRP", "CLASS_ASSIGNMENT": "label 0"}
{"BIOPOLYMER_SEQUENCE": "RRIRWRPPRLPRPRPRPNCIPRP", "CLASS_ASSIGNMENT": "label 0"}
{"BIOPOLYMER_SEQUENCE": "RRIRKRPPRLPRPRPRPPETPRP", "CLASS_ASSIGNMENT": "label 1"}
{"BIOPOLYMER_SEQUENCE": "RRIRMRPPRLPRPRPRPMMFPRP", "CLASS_ASSIGNMENT": "label 1"}
{"BIOPOLYMER_SEQUENCE": "RRIRRRPPRLPRPRPRPANKPRP", "CLASS_ASSIGNMENT": "label 1"}
{"BIOPOLYMER_SEQUENCE": "RRIRFRPPRLPRPRPRPGWMPRP", "CLASS_ASSIGNMENT": "label 0"}

###

System: Escherichia coli TOP10
Test: shrunken log2 fold change of peptide-encoding DNA abundance (4.5 h post-induction vs induction); higher = less antimicrobial activity (less host growth inhibition)
Details: time post-induction: 4.5 h; library: site-saturation at positions 5, 18, 19, 20
Assign class by shrunken log2 fold change: not lower than -0.1 means true; lower than -0.1 means false.

{"BIOPOLYMER_SEQUENCE": "RRIRNRPPRLPRPRPRPSDTPRP", "CLASS_ASSIGNMENT": "true"}
{"BIOPOLYMER_SEQUENCE": "RRIRHRPPRLPRPRPRPQSAPRP", "CLASS_ASSIGNMENT": "false"}
{"BIOPOLYMER_SEQUENCE": "RRIRPRPPRLPRPRPRPQVNPRP", "CLASS_ASSIGNMENT": "false"}
{"BIOPOLYMER_SEQUENCE": "RRIRCRPPRLPRPRPRPLNPPRP", "CLASS_ASSIGNMENT": "false"}
{"BIOPOLYMER_SEQUENCE": "RRIRSRPPRLPRPRPRPWVYPRP", "CLASS_ASSIGNMENT": "false"}
{"BIOPOLYMER_SEQUENCE": "RRIRRRPPRLPRPRPRPTQMPRP", "CLASS_ASSIGNMENT": "true"}
{"BIOPOLYMER_SEQUENCE": "RRIRSRPPRLPRPRPRPHTKPRP", "CLASS_ASSIGNMENT": "true"}
{"BIOPOLYMER_SEQUENCE": "RRIRKRPPRLPRPRPRPQCIPRP", "CLASS_ASSIGNMENT": "false"}

###

Tested on: Escherichia coli TOP10
Assay: shrunken log2 fold change of peptide-encoding DNA abundance (4.5 h post-induction vs induction); higher = less antimicrobial activity (less host growth inhibition)
Conditions: time post-induction: 4.5 h; library: site-saturation at positions 5, 18, 19, 20
Assign class by shrunken log2 fold change: not lower than 0.1 means YES; lower than 0.1 means NO.

{"BIOPOLYMER_SEQUENCE": "RRIRMRPPRLPRPRPRPRLLPRP", "CLASS_ASSIGNMENT": "YES"}
{"BIOPOLYMER_SEQUENCE": "RRIRWRPPRLPRPRPRPATQPRP", "CLASS_ASSIGNMENT": "YES"}
{"BIOPOLYMER_SEQUENCE": "RRIRLRPPRLPRPRPRPANCPRP", "CLASS_ASSIGNMENT": "NO"}
{"BIOPOLYMER_SEQUENCE": "RRIRTRPPRLPRPRPRPHFNPRP", "CLASS_ASSIGNMENT": "NO"}
{"BIOPOLYMER_SEQUENCE": "RRIRRRPPRLPRPRPRPPVKPRP", "CLASS_ASSIGNMENT": "YES"}
{"BIOPOLYMER_SEQUENCE": "RRIRKRPPRLPRPRPRPYPTPRP", "CLASS_ASSIGNMENT": "NO"}
{"BIOPOLYMER_SEQUENCE": "RRIRCRPPRLPRPRPRPHPPPRP", "CLASS_ASSIGNMENT": "YES"}

###

Test system: Escherichia coli TOP10;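 note: peptides expressed intracellularly from a pBAD plasmid library in pooled LB shake-flask culture, induced with 0.3% L-arabinose, DNA abundance read by NGS, three biological replicates, DESeq2 with apeglm shrinkage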
Assay: shrunken log2 fold change of peptide-encoding DNA abundance (4.5 h post-induction vs induction); higher = less antimicrobial activity (less host growth inhibition)
Conditions: time post-induction: 4.5 h; library: site-saturation at positions 5, 18, 19, 20
PROPERTY: shrunken log2 fold change

{"BIOPOLYMER_SEQUENCE": "RRIRVRPPRLPRPRPRPNMDPRP", "OBSERVED_MEASUREMENT": -0.506}
{"BIOPOLYMER_SEQUENCE": "RRIRHRPPRLPRPRPRPRIIPRP", "OBSERVED_MEASUREMENT": -1.44}
{"BIOPOLYMER_SEQUENCE": "RRIRGRPPRLPRPRPRPTHVPRP", "OBSERVED_MEASUREMENT": 0.483}
{"BIOPOLYMER_SEQUENCE": "RRIRCRPPRLPRPRPRPIMWPRP", "OBSERVED_MEASUREMENT": -0.123}
{"BIOPOLYMER_SEQUENCE": "RRIRYRPPRLPRPRPRPFMCPRP", "OBSERVED_MEASUREMENT": -0.233}
{"BIOPOLYMER_SEQUENCE": "RRIRGRPPRLPRPRPRPCLGPRP", "OBSERVED_MEASUREMENT": 0.0741}
{"BIOPOLYMER_SEQUENCE": "RRIRDRPPRLPRPRPRPTVRPRP", "OBSERVED_MEASUREMENT": 0.0184}
{"BIOPOLYMER_SEQUENCE": "RRIRCRPPRLPRPRPRPFCCPRP", "OBSERVED_MEASUREMENT": -0.175}
{"BIOPOLYMER_SEQUENCE": "RRIRTRPPRLPRPRPRPTCPPRP", "OBSERVED_MEASUREMENT": -0.0738}
{"BIOPOLYMER_SEQUENCE": "RRIRSRPPRLPRPRPRPGNNPRP", "OBSERVED_MEASUREMENT": -0.354}
